# Test system: crabgrass
# experiment: Test Example 2: soil application on the day after sowing, growth inhibition rate, crabgrass
# Type: in vivo, Digitaria sanguinalis L.
# setup.conditions: Digitaria sanguinalis, 250 g/ha active ingredient, observed on 19th to 24th day
property.name: inhibition at 250 g/ha (%)
Numbers only, in %.

Consider the worked cases shown below.
IN: Param item = CCSC(=O)Oc1c(C(=O)c2ccc(S(C)(=O)=O)c(OC)c2C)cnn1C [Compound No. 35] ; retrieve measured inhibition at 250 g/ha.
OUT: 100

IN: Same read-out for CCSC(=O)Oc1c(C(=O)c2ccc(S(C)(=O)=O)c(C(=O)OC)c2C)cnn1CC [Compound No. 2] ?
OUT: 100

IN: // repeat for CCSC(=O)Oc1c(C(=O)c2ccc(S(C)(=O)=O)c(C(=O)OC)c2C)cnn1C [Compound No. 1] and report
OUT: 100

IN: For CCSC(=O)Oc1c(C(=O)c2ccc(S(C)(=O)=O)c(OC(F)F)c2C)cnn1C [Compound No. 38] then?
OUT: 95

IN: Lookup CCSC(=O)Oc1c(C(=O)c2ccc(S(C)(=O)=O)c(OCCOC)c2C)cnn1C [Compound No. 55]
OUT: 100

For the 3 compounds below, give their inhibition at 250 g/ha values.
1. CCSC(=O)Oc1c(C(=O)c2ccc(S(C)(=O)=O)c(OCC(OC)OC)c2C)cnn1C [Compound No. 209]
2. CCSC(=O)Oc1c(C(=O)c2ccc(S(C)(=O)=O)c(C3=NOCC3)c2C)cnn1C [Compound No. 39]
3. CCSC(=O)Oc1c(C(=O)c2ccc(S(C)(=O)=O)c(OCCOC)c2C)cnn1CC [Compound No. 16]

OUT:
[95, 100, 100]

---

# Test system: velvetleaf
# experiment: Test Example 2: soil application on the day after sowing, growth inhibition rate, velvetleaf
# Type: in vivo, Abutilon theophrasti MEDIC.
# setup.conditions: 250 g/ha active ingredient, observed on 19th to 24th day
property.name: Growth inhibition rate (%) Velvetleaf
One number for each entry, in %.

Go through the items and report each one's Growth inhibition rate (%) Velvetleaf.
1. CCSC(=O)Oc1c(C(=O)c2ccc(S(C)(=O)=O)c(COC3CCOC3)c2C)cnn1C (centres unmarked)
2. CCC(C)SC(=O)Oc1c(C(=O)c2ccc(S(C)(=O)=O)c(C(=O)OC)c2Cl)cnn1CC (centres unmarked)
3. CCC(C)SC(=O)Oc1c(C(=O)c2ccc(S(C)(=O)=O)c(C(=O)OC)c2C)cnn1C (centres unmarked)

OUT:
[80, 95, 100]

Would you mind listing Growth inhibition rate (%) Velvetleaf for each of the following compounds?
1. CCSC(=O)Oc1c(C(=O)c2ccc(S(C)(=O)=O)c(OC(C)COC)c2C)cnn1C (centres unmarked)
2. CCn1ncc(C(=O)c2ccc(S(C)(=O)=O)c(C(=O)OC)c2Cl)c1OC(=O)SC

OUT:
1: 0; 2: 100

---

# System: greenfoxtail
# experiment: Test Example 2: soil application on the day after sowing, growth inhibition rate, greenfoxtail
# Format: in vivo, Setaria viridis L.
# setup.conditions: Setaria viridis, 250 g/ha active ingredient, observed on 19th to 24th day
Assign inhibition at 250 g/ha to each entry below.
Numbers only, in %.

Example cases with answers are listed next.
IN: Notebook: pull reported inhibition at 250 g/ha for greenfoxtail, entry CCSC(=O)Oc1c(C(=O)c2ccc(S(C)(=O)=O)c(OC(F)F)c2C)cnn1C
OUT: 70

IN: Same read-out for CCSC(=O)Oc1c(C(=O)c2ccc(S(C)(=O)=O)c(OCCOC)c2C)cnn1CC ?
OUT: 98

IN: Next compound: CCSC(=O)Oc1c(C(=O)c2ccc(S(C)(=O)=O)c(OCCOC)c2C)cnn1C
OUT: 100

IN: Same read-out for CCSC(=O)Oc1c(C(=O)c2ccc(S(C)(=O)=O)c(C3=NOCC3)c2C)cnn1C ?
OUT: 80

Here's the next entry for you.
IN: Hi! What's the reported inhibition at 250 g/ha for CCSC(=O)Oc1c(C(=O)c2ccc(S(C)(=O)=O)c(OCC(OC)OC)c2C)cnn1C on greenfoxtail?
OUT: 100

---

For each entry below, report its Growth inhibition rate (%) Barnyardgrass value.
# Tested on: barnyardgrass (Echinochloa crus-galli L.)
# experiment: Test Example 1: foliar treatment, growth inhibition rate, barnyardgrass
# Type: in vivo
# setup.conditions: 31 g/ha active ingredient, visually observed 17th to 23rd day after application
Answers are plain numbers, in %.

Study these solved cases before continuing.
IN: Lookup: Growth inhibition rate (%) Barnyardgrass / barnyardgrass (Echinochloa crus-galli L.) / CCSC(=O)Oc1c(C(=O)c2ccc(S(C)(=O)=O)c(OCC3CCCCO3)c2C)cnn1C (stereo not drawn) [compound 215]
OUT: 100

IN: Entry CCOC(=O)COc1c(S(C)(=O)=O)ccc(C(=O)c2cnn(C)c2OC(=O)SCC)c1C [compound 65] please
OUT: 20

IN: Repeat with CCOC(=O)c1c(S(C)(=O)=O)ccc(C(=O)c2cnn(CC)c2OC(=O)SCC)c1Cl [compound 59]
OUT: 90

IN: Same again, this time with CCSC(=O)Oc1c(C(=O)c2ccc(C(F)(F)F)cc2S(C)(=O)=O)cnn1CC [compound 68]
OUT: 95

Batch request: Growth inhibition rate (%) Barnyardgrass for each of the following compounds.
1. COCCOc1c(S(C)(=O)=O)ccc(C(=O)c2cnn(C)c2OC(=O)SC)c1C [compound 233]
2. CCSC(=O)Oc1c(C(=O)c2ccc(S(C)(=O)=O)c(COC)c2C)cnn1C [compound 63]
3. CCSC(=O)Oc1c(C(=O)c2ccc(S(C)(=O)=O)c(CN(C)CC#N)c2C)cnn1C [compound 210]
4. CCSC(=O)Oc1c(C(=O)c2ccc(S(C)(=O)=O)c(OC3CCOC3)c2C)cnn1C (stereo not drawn) [compound 217]
5. CCSC(=O)Oc1c(C(=O)c2ccc(S(C)(=O)=O)c(OCCCl)c2C)cnn1C [compound 78]
6. CCSC(=O)Oc1c(C(=O)c2ccc(S(C)(=O)=O)c(COCC(F)(F)F)c2C)cnn1C [compound 69]

OUT:
1. 100
2. 95
3. 80
4. 100
5. 60
6. 95

Could you report Growth inhibition rate (%) Barnyardgrass for every entry in the following list?
1. COCc1c(S(C)(=O)=O)ccc(C(=O)c2cnn(C)c2OC(=O)SC)c1Cl [compound 74]
2. CCSC(=O)Oc1c(C(=O)c2ccc(S(C)(=O)=O)c(COCCOC)c2C)cnn1C [compound 76]

OUT:
[100, 98]

---

Exercise: for every item that follows, state its recorded Growth inhibition rate (%) Greenfoxtail.
# Tested on: greenfoxtail (Setaria viridis L.)
# experiment: Test Example 1: foliar treatment, growth inhibition rate, greenfoxtail
# Type: in vivo
# setup.conditions: 63 g/ha active ingredient, visually observed 17th to 23rd day after application
Give bare numbers, in %.

Below: 2 compounds and their reported Growth inhibition rate (%) Greenfoxtail.
IN: Given CCSC(=O)Oc1c(C(=O)c2ccc(S(C)(=O)=O)c(CCC#N)c2C)cnn1C [compound 230] , state its recorded Growth inhibition rate (%) Greenfoxtail.
OUT: 100

IN: Would you kindly repeat that for CCSC(=O)Oc1c(C(=O)c2ccc(S(C)(=O)=O)c(CC(N)=S)c2C)cnn1C [compound 232] ?
OUT: 95

---
IN: State the recorded Growth inhibition rate (%) Greenfoxtail for this entry: CCSC(=O)Oc1c(C(=O)c2ccc(S(C)(=O)=O)c(C=CC#N)c2C)cnn1C [compound 229]
OUT: 100

---

Provide the reported Growth inhibition rate (%) Velvetleaf of each item.
# Test system: velvetleaf
# experiment: Test Example 2: soil application on the day after sowing, growth inhibition rate, velvetleaf
# Type: in vivo, Abutilon theophrasti MEDIC.
# setup.conditions: 250 g/ha active ingredient, observed on 19th to 24th day
Give bare numbers, in %.

Sample answers from the record:
IN: So what does the record say about Growth inhibition rate (%) Velvetleaf for CCSC(=O)Oc1c(C(=O)c2ccc(S(C)(=O)=O)c(COC)c2Cl)cnn1C ?
OUT: 70

IN: Proceed to CCSC(=O)Oc1c(C(=O)c2ccc(S(C)(=O)=O)c(OCC3CCCO3)c2C)cnn1C (stereo not drawn)
OUT: 40

IN: Same again, this time with COC(=O)c1c(S(C)(=O)=O)ccc(C(=O)c2cnn(C)c2OC(=O)SC(C)C)c1C
OUT: 95

IN: Repeat with CCOc1c(S(C)(=O)=O)ccc(C(=O)c2cnn(C)c2OC(=O)SCC)c1C
OUT: 50

IN: Field entry: COC(=O)c1c(S(C)(=O)=O)ccc(C(=O)c2cnn(C)c2OC(=O)SCc2ccccc2)c1C
OUT: 50

Dear colleague, could you please provide Growth inhibition rate (%) Velvetleaf for the compounds listed below?
1. COCCOc1c(S(C)(=O)=O)ccc(C(=O)c2cnn(C)c2OC(=O)SC(C)C)c1C
2. CCOCc1c(S(C)(=O)=O)ccc(C(=O)c2cnn(C)c2OC(=O)SCC)c1C
3. CCn1ncc(C(=O)c2ccc(S(C)(=O)=O)c(C(=O)OC)c2C)c1OC(=O)SCc1ccccc1
4. CCCOC(=O)c1c(S(C)(=O)=O)ccc(C(=O)c2cnn(CC)c2OC(=O)SCC)c1Cl
5. COC(=O)c1c(S(C)(=O)=O)ccc(C(=O)c2cnn(C)c2OC(=O)SC)c1C
6. CCSC(=O)Oc1c(C(=O)c2ccc(C(F)(F)F)cc2S(C)(=O)=O)cnn1CC
7. CCSC(=O)Oc1c(C(=O)c2ccc(S(C)(=O)=O)c(OCCC3OCCO3)c2Cl)cnn1CC

OUT:
[100, 100, 65, 60, 70, 100, 60]

Quick batch: Growth inhibition rate (%) Velvetleaf for everything below.
1. COC(=O)c1c(S(C)(=O)=O)ccc(C(=O)c2cnn(C)c2OC(=O)SC(C)(C)C)c1C
2. CCSC(=O)Oc1c(C(=O)c2ccc(S(C)(=O)=O)c(CC#N)c2C)cnn1C
3. CCOC(=O)c1c(S(C)(=O)=O)ccc(C(=O)c2cnn(CC)c2OC(=O)SC)c1C
4. CCSC(=O)Oc1c(C(=O)c2ccc(S(C)(=O)=O)c(CS(C)(=O)=O)c2C)cnn1C
5. CCCCCCCc1c(S(C)(=O)=O)ccc(C(=O)c2cnn(C)c2OC(=O)SCC)c1C
6. CCCSC(=O)Oc1c(C(=O)c2ccc(S(C)(=O)=O)c(C(=O)OC)c2C)cnn1C
7. COC(=O)c1c(S(C)(=O)=O)ccc(C(=O)c2cnn(C)c2OC(=O)SC)c1Cl
8. CCSC(=O)Oc1c(C(=O)c2ccc(S(C)(=O)=O)c(COCCOC)c2C)cnn1C

OUT:
1. 100
2. 40
3. 90
4. 30
5. 0
6. 98
7. 50
8. 30

IN: Which Growth inhibition rate (%) Velvetleaf value is on record for CCSC(=O)Oc1c(C(=O)c2ccc(S(C)(=O)=O)c(OCC(F)(F)F)c2C)cnn1C ?
OUT: 50

The origin of these recorded values is patent US8030498B2.
